Target: phosphorylated Btk at Tyr223 in Ramos cells (Homo sapiens (Human))
Sequence (Q06187 whole entry): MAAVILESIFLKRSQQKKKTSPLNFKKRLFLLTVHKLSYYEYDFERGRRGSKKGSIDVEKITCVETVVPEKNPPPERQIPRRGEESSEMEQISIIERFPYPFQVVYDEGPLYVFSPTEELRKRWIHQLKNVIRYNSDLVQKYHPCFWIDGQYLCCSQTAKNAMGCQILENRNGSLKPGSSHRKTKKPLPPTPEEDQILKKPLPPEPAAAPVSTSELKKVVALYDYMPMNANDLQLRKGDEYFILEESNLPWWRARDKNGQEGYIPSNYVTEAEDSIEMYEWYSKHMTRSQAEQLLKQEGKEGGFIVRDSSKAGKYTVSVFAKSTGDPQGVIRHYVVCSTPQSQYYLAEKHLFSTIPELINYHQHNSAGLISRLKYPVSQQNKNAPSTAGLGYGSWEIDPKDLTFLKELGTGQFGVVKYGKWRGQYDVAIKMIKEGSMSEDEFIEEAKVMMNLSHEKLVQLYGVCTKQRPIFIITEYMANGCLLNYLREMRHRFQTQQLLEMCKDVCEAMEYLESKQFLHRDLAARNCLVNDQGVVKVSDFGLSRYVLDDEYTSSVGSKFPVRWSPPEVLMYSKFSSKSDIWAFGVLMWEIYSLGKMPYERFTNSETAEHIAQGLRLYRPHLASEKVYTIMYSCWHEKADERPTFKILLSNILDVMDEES
Assay: Btk pY223 cellular assay (HTRF) in Ramos cells
Type: cell-based
Conditions: 1 hour compound incubation, pervanadate or Na3VO4 stimulation
experimental_readout: IC50 (nM)

Solved cases (5 shown):
Log: phosphorylated Btk at Tyr223 in Ramos cells (Homo sapiens (Human)), compound `C=CC(=O)N1CC2(CNc3c(C(N)=O)c(-c4ccc(Oc5ccccc5)cc4)nn32)C1` , IC50 = 22.6

Log: phosphorylated Btk at Tyr223 in Ramos cells (Homo sapiens (Human)), compound C=CC(=O)NC1CNc2c(C(N)=O)c(-c3ccc(Oc4ccccc4)cc3)nn2C1 (stereo not shown) , IC50 = 73.2

Log: phosphorylated Btk at Tyr223 in Ramos cells (Homo sapiens (Human)), compound C=CC(=O)Nc1ccccc1C1CCNc2c(C(N)=O)c(-c3cc(Cl)c(OC)c(Cl)c3)nn21 (stereo not shown) , IC50 = 7

Log: phosphorylated Btk at Tyr223 in Ramos cells (Homo sapiens (Human)), compound C=CC(=O)Nc1ccccc1C1CCNc2c(C(N)=O)c(-c3ccc(Cl)c(Cl)c3)nn21 (stereo not shown) , IC50 = 6.8

Log: phosphorylated Btk at Tyr223 in Ramos cells (Homo sapiens (Human)), compound C=CC(=O)N1CCC(C2(C)CCNc3c(C(N)=O)c(-c4ccc(Oc5ccccc5)cc4)nn32)CC1 (stereo not shown) , IC50 = 7.6

I: C=CC(=O)N1CC(C2CCNc3c(C(N)=O)c(-c4ccc(Oc5ccc(Cl)c(Cl)c5)cc4)nn32)C1 (stereo not shown)
II: C=CC(=O)Nc1ccc2c(c1)CC(=O)Nc1c(C(N)=O)c(-c3ccc(Oc4ccccc4)cc3)nn1-2
III: C=CC(=O)Nc1ccccc1C1CCNc2c(C(N)=O)c(-c3ccc(Cl)c(F)c3)nn21 (stereo not shown)
IV: C=CC(=O)Nc1ccccc1C1CCNc2c(C(N)=O)c(-c3ccc(Oc4ccc(F)cc4)cc3)nn21 (stereo not shown)
V: NC(=O)c1c(-c2ccc(Oc3ccccc3)cc2)nn2c1NCC[C@H]2C1CCN(C(=O)CCCl)CC1
-- ask Please list these in order of increasing IC50. Thank you! List the labels according to the requested ordering.
-- reply III, V, I, IV, II
